Tested on: A549 NSCLC
experiment_notes: NCI tumour cell line growth inhibition, 48 h; in the data active = GI50 below about 0.43 µM; inactive = the rest
Respond using exactly one of the listed classes: 1 (yes) = active, 0 (no) = inactive

q: Recorded test call requested for `O=C1c2ccccc2-c2c1c1ccc([N+](=O)[O-])cc1c(=O)n2CCCNCCO`
a: 0 (no)

q: Please share the test call associated with `CNC1=C(C(=O)OC)SC(c2ccccc2)(c2ccccc2)SC1` .
a: 0 (no)

q: Which outcome did this test record for the compound `COc1cccc(N=N/C(=N\NC(=O)c2cc(Br)ccc2O)c2ccc(N(CCC#N)CCC#N)cc2OC)c1` ?
a: 0 (no)

q: Hello, I am checking results. What call was entered for `N#Cc1nc2c(S(=O)(=O)c3ccccc3)c(N)n(Cc3ccc(Cl)cc3)c2nc1C#N` ?
a: 0 (no)

q: Field: outcome | Entry: `NCCCN1CCN(CCCNc2nc3ccccc3c3[nH]c4ccccc4c23)CC1`
a: 1 (yes)

---

System: NCI-H522 lung
experiment_notes: NCI tumour cell line growth inhibition, 48 h
readout_label: TGI

Recorded TGI (compound `CC(C)C[C@H](NC(=O)CCn1ccc2ncccc2c1=O)B(O)O` ): 25 µM

Query CCCN(CCC)C1CCc2c(ccc3cc[nH]c23)C1 (centres undefined) yields TGI of > 100 µM

Record COc1cc2c(cc1OC)[C@@](C)(C(O)C(O)C(C)(C)O)NCC2 (some centres undefined) . Reported TGI: > 100 µM

// `COc1c(Cl)ccc2c(-c3nc4cc(Cl)c(F)cc4s3)cc(=O)oc12` : TGI value = 3.38 µM

Kindly note the recorded TGI for O=C(O)CNC(=O)c1ccc2cc(C(=O)N3CC(CCl)c4ccc([N+](=O)[O-])cc43)[nH]c2c1 (centres undefined) , which is > 100 µM

The value of TGI measured for the compound `COc1cc2c3c(n(CCCBr)c(=O)c2cc1OC)-c1ccc(F)cc1C3=O` turned out to be 36.3 µM

Note to self: TGI recorded for `CN[C@@H](C)[C@@H](O)c1ccccc1` was > 10 µM

The compound `CCN(CC)CCn1c2ccc(OC)cc2c2sc3cc(OC)ccc3c(=O)c21` showed TGI equal to 4.22 µM

GET /value?item= `COc1ccc(-c2cc(-c3cccc(NS(C)(=O)=O)c3)nc(N)c2C#N)cc1` &field=TGI returns 1.25 µM

The compound identified as `CC(=O)N(C(C)=O)n1c(Cc2ccc(C)cc2)nn(C(C)=O)c1=O` registered its TGI at > 100 µM

response.value for `Cc1ccc(S(=O)(=O)n2ccc(-c3ccc4ccn(S(=O)(=O)c5ccc(C)cc5)c4c3)c2)cc1` (field: TGI) = > 100 µM

Entry `NCCCN1CCN(CCCNc2nc3ccccc3c3[nH]c4ccccc4c23)CC1` — recorded TGI = 1.31 µM

TGI for `CCCCn1c2ccccc2c2ccc3c(c21)C(=O)C=CC3=O` is > 100 µM

Form: compound = `N#C/C(=C\c1c(-c2ccccc2)[nH]c2ccccc12)C(=O)c1ccccc1` ; TGI = 32.9 µM

Looking up COc1ccc(C2SCC(=O)N2NC(=O)C(C)Oc2ccccc2C)cc1 (centres undefined) , I see its TGI listed as > 100 µM

Noted for COC12C=CC(C=C1C#N)CC2 (centres undefined) (tested in a mixture with another compound) : its TGI reads > 100 µM

Entry under test: `C=Cc1nc(C#N)c(N)o1` . Its TGI was > 100 µM

Form: compound = `N#Cc1nc2c(S(=O)(=O)c3ccccc3)c(N)n(Cc3ccc(Cl)cc3)c2nc1C#N` ; TGI = > 50 µM

TGI for CCN(CC)CCOc1ccc(C(O)(Cc2ccc(OC)cc2)c2ccccc2)cc1 (centres undefined) is 40.9 µM

response.value for `Nc1ccc(C(OC(=O)c2cc3ccccc3c(Cc3c(O)c(C(=O)OC(c4ccc(N)cc4)(c4ccc(N)cc4)c4ccc(N)cc4)cc4ccccc34)c2O)(c2ccc(N)cc2)c2ccc(N)cc2)cc1` (field: TGI) = 12.4 µM

Entry `COc1ccc2c(CCNC(=O)/C=C/c3ccccc3)c(C(C)=O)[nH]c2c1[N+](=O)[O-]` ; TGI = 18.9 µM

For record `Cc1ncc(C(=O)Nc2ccc(CN3CCN(C)CC3)c(C(F)(F)F)c2)cc1C#Cc1c(N)ncc2ccccc12` the listed TGI is 0.992 µM

Recorded TGI (compound `CC(=O)[O-].[Zn].c1ccc(/C(=N\Nc2ccccn2)c2ccccn2)cc1` ): 2.06 µM

# TGI (compound: `CNC(=S)NNc1ncnc2c1ncn2-c1ccc(C)cc1` ) is > 100 µM

Lab note: measured TGI of `CS/C(c1ccccc1)=[N+](\[O-])Cc1ccccc1` was > 100 µM

The compound `CCCCCCCCCCCCCCCCCCOc1ccccc1CC(=O)NCC[N+](C)(C)C` showed TGI equal to 8.24 µM

Sample CN(Cc1cnc2nc(N)nc(N)c2n1)c1ccc(C(=O)NC(CCC(=O)NC(CC(P(=O)(O)O)P(=O)(O)O)C(=O)O)C(=O)O)cc1 (centres undefined) ; TGI observed: > 100 µM

Value of TGI reported for the compound `CC(=O)NC1(C(=O)N[C@@H](Cc2ccccc2)C(=O)NC2CCCCC2)Cc2ccc3ccccc3c2-c2c(ccc3ccccc23)C1` is > 100 µM

The recorded TGI for `CCn1c(=O)c2ccccc2n2c(=O)c3cc4ccccc4cc3nc12` is > 100 µM

Lookup result for COC(=O)c1ccccc1C1=C([N+](=O)[O-])C(c2ccccc2)C(C#N)=C(N)O1 (centres undefined) ; measured TGI: 30.8 µM

// TGI lookup, compound = `CCCc1nnc2sc(COc3cc(Cl)c(OCc4nn5c(CCC)nnc5s4)cc3Cl)nn12` , result: > 100 µM

Consider `CC1(C)CC([P+](c2ccccc2)(c2ccccc2)c2ccccc2)=NN1` . Its measured TGI is > 100 µM

Per the records, this compound ( `Cn1ccnc1CCc1ccc(Cl)c(Cl)c1` ) has TGI equal to > 100 µM

Form: compound = `N=c1oc2ccccc2cc1-c1nc2ccccc2c(=O)[nH]1` ; TGI = > 100 µM

Form field TGI, entry `CCOC(=O)C(C(=O)OCC)C(=O)c1ccccc1C(=O)c1ccccc1` : > 100 µM

Recorded result, `C[C@@H](COCCC(=O)N1CCN(c2ncc(C(F)(F)F)cn2)CC1)Nc1cn[nH]c(=O)c1C(F)(F)F` , TGI: > 100 µM

The compound listed as COC12CCC(C(C(=O)c3ccccc3)=C1C(=O)c1ccccc1)C(O)C2 (centres undefined) shows TGI equal to > 100 µM

Just so you know, measured TGI for `O=C(N/N=C/c1ccc(Cl)cc1Cl)c1ccc2nc(-c3ccc(Cl)cc3)[nH]c2c1` came out at 5.85 µM

In plain terms, `Cc1cc(C)c(S(=O)(=O)N(CCc2cccc(Br)c2)Cc2ccc(-c3cccc(S(C)(=O)=O)c3)cc2)c(C)c1` has a documented TGI of > 100 µM
